- SYSTEM_NAME: Mushroom TYR (EC 1.14.18.1) (Agaricus bisporus, UniProt C7FF04)
- Sequence (C7FF04 1-392 limits assumed): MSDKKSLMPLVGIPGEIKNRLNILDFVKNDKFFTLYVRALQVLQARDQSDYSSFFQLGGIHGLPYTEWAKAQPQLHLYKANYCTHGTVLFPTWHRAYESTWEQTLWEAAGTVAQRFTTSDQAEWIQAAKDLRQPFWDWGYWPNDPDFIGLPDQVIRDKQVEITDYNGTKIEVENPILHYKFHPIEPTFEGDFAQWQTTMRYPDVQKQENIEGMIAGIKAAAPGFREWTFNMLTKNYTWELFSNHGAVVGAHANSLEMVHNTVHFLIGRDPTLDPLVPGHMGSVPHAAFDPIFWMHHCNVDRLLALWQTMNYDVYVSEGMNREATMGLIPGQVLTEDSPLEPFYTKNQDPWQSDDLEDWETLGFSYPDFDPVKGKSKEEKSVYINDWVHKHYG
- ASSAY_REMARKS: biochemical
- TEST_CONDITIONS: IC50 value ± SD, L-dopa
MEASURE: IC50 (µM)

Solved entries (count: 3):
Query: Dear colleague, I am looking for the recorded IC50 of the following compound: O=C(CCc1ccccc1O)N1CCN(Cc2ccc(F)cc2)CC1 [Compound V-3]
Response: 66.1

Query: Now consider N#Cc1ccc(CN2CCN(C(=O)/C=C/c3ccc(O)cc3O)CC2)cc1 [Compound V-34] and answer again.
Response: 0.032

Query: Now consider O=C(CCc1cccc(O)c1)N1CC2CN(Cc3ccc(F)cc3)CC2C1 (stereo not drawn) [Compound V-7] and answer again.
Response: 119

a. O=C(CCc1cccc(O)c1)N1CCN(Cc2ccc(F)cc2)CC1 [Compound V]
b. Cc1ccc(CN2CCN(C(=O)/C=C/c3ccc(O)cc3O)CC2)cc1 [Compound V-24]
Query: Thinking about recorded IC50 values, which is higher, a or b ? Identify your selection by its label.
Response: a
(a: 41.8 µM, b: 0.018 µM)

I. Cc1ccc(CN2CCN(C(=O)CCc3ccc(O)cc3O)CC2)cc1 [Compound V-23]
II. O=C(/C=C/c1ccc(O)cc1O)N1CCN(Cc2ccc(Cl)cc2)CC1 [Compound V-32]
Query: Would you mind telling me which has the lower recorded IC50 between I and II ? Identify your selection by its label.
Response: II
(II: 0.021 µM, I: 0.134 µM)
